- TARGET OR TEST SYSTEM: Human PTP1B (1-321) (Homo sapiens, UniProt P18031)
- Sequence (P18031 1-321): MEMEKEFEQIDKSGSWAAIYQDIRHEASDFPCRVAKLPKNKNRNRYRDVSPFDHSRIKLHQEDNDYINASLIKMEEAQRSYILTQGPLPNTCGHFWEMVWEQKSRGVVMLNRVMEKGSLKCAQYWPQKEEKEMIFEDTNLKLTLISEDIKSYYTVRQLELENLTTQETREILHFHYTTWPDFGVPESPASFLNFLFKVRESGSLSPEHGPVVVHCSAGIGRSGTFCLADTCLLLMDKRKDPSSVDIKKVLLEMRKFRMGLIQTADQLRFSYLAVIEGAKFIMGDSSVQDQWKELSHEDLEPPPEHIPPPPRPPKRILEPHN
Output schema: class label derived from IC50. Mapping: lower (below 2 µM), middle (2 µM to below 4 µM), upper (4 µM or more)

CSc1ccccc1-c1ccc2c(NCCO)nc(N)nc2c1 upper
CNc1nc(N)nc2cc(-c3c(Cl)cccc3Cl)ccc12 lower
CNc1nc(N)nc2cc(-c3ccccc3SC)ccc12 lower
CNc1nc(N)nc2cc(-c3ccccc3S(=O)(=O)NC)ccc12 lower
CNc1nc(N)nc2cc(-c3ccccc3C)ccc12 middle
CNc1nc(N)nc2cc(-c3ccccc3S(=O)(=O)N(C)C)ccc12 lower
Cc1cccc(C)c1-c1ccc2c(N(C)C)nc(N)nc2c1 upper
CCNc1nc(N)nc2cc(-c3c(C)cccc3C)ccc12 middle
Cc1ccccc1-c1ccc2c(NCCO)nc(N)nc2c1 upper
